B1: P2RY14 (parent)
chain: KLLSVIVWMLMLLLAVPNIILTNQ

# Variants of: B1
# Test Method Notes: protein stability index of a GFP-peptide fusion (GPS, HEK-293T) (PSI 1-6); higher = more stable;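 further: lentivirally expressed fusions sorted by FACS into six bins by GFP to DsRed ratio, PSI derived from sequencing read proportions per bin multiplied by bin number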
# Test Settings: c terminus: a fixed tail appended
Result Type: protein stability index
No unit in the answer, only the number.

Example entries and their recorded answers appear below.
>>> df
   mutation_key              result_type  result_number
0          I19K  protein stability index           1.76
1           V5I  protein stability index           3.93
2          I20L  protein stability index           2.52
3           V5W  protein stability index           2.74
4          M11P  protein stability index           3.16
5          N18K  protein stability index           2.59

Problem: # get_value(readout='protein stability index', item= I6L )
Result: 4.14

Problem: // repeat for V7D and report
Result: 3.57

Problem: // repeat for L13D and report
Result: 3.11

Problem: // repeat for M11R and report
Result: 2.58

Problem: // repeat for T22Y and report
Result: 3.3

Problem: // repeat for I20D and report
Result: 3.27

Problem: // repeat for L12N and report
Result: 2.32

Problem: // repeat for A15L and report
Result: 2.56

Problem: // repeat for N23E and report
Result: 3.67

# credit: the supplement of paper PMC10567573
